- system: T1, Human CD3eg linker (human)
- T1 construct: Single chain: epsilon and gamma subunits of human CD3 joined by a 29-mer linker, Flag-tag at the C-terminus; also called recombinant human CD3
- T1 chain: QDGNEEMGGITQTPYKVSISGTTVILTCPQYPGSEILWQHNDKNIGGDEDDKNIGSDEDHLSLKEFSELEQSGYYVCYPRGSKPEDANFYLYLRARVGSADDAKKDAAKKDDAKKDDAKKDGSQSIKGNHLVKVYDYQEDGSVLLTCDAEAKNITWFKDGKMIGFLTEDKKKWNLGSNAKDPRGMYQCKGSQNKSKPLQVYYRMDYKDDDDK
- protocol: Biacore SPR, vs template H183/L072
recorded.metric: fold change of affinity (fold)

INSERT INTO assay_data (binder, recorded_metric, unit_name, experimental_value) VALUES
  ('H183/L072 VH F100gA (antibody, name in Kabat numbering, V domains shown) VH: QVQLVESGGGLVQPGRSLRLSCAASGFTFSNAWMHWVRQAPGKGLEWVAQIKDKGNAYAAYYAPSVKGRFTISRDDSKNSIYLQMNSLKTEDTAVYYCHYVHYASASTVLPAAGVDAWGQGTTVTVSS VL: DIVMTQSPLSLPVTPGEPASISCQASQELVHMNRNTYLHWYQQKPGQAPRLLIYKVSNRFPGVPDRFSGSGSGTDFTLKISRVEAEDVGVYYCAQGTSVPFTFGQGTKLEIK', 'fold change of affinity', 'fold', 1.7),
  ('H183/L072 VH S30D (antibody, name in Kabat numbering, V domains shown) VH: QVQLVESGGGLVQPGRSLRLSCAASGFTFDNAWMHWVRQAPGKGLEWVAQIKDKGNAYAAYYAPSVKGRFTISRDDSKNSIYLQMNSLKTEDTAVYYCHYVHYASASTVLPAFGVDAWGQGTTVTVSS VL: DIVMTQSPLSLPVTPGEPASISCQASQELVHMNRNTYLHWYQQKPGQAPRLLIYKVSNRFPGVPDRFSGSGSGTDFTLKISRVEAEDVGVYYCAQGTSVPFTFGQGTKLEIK', 'fold change of affinity', 'fold', 1),
  ('H183/L072 VH N53A (antibody, name in Kabat numbering, V domains shown) VH: QVQLVESGGGLVQPGRSLRLSCAASGFTFSNAWMHWVRQAPGKGLEWVAQIKDKGAAYAAYYAPSVKGRFTISRDDSKNSIYLQMNSLKTEDTAVYYCHYVHYASASTVLPAFGVDAWGQGTTVTVSS VL: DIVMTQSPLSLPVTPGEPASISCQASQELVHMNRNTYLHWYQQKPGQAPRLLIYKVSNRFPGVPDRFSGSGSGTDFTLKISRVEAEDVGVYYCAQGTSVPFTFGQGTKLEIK', 'fold change of affinity', 'fold', 0.7),
  ('H183/L072 VH A100I (antibody, name in Kabat numbering, V domains shown) VH: QVQLVESGGGLVQPGRSLRLSCAASGFTFSNAWMHWVRQAPGKGLEWVAQIKDKGNAYAAYYAPSVKGRFTISRDDSKNSIYLQMNSLKTEDTAVYYCHYVHYASISTVLPAFGVDAWGQGTTVTVSS VL: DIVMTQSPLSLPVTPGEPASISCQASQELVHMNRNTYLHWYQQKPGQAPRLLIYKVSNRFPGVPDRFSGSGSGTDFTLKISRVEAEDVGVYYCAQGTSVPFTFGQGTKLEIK', 'fold change of affinity', 'fold', 1.4),
  ('H183/L072 VH W33I (antibody, name in Kabat numbering, V domains shown) VH: QVQLVESGGGLVQPGRSLRLSCAASGFTFSNAIMHWVRQAPGKGLEWVAQIKDKGNAYAAYYAPSVKGRFTISRDDSKNSIYLQMNSLKTEDTAVYYCHYVHYASASTVLPAFGVDAWGQGTTVTVSS VL: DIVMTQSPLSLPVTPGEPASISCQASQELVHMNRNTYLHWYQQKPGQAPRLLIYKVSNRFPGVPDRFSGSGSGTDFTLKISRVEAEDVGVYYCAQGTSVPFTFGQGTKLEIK', 'fold change of affinity', 'fold', 0);
